Would you kindly list abundance fitness for each of these variants?
B1: Protein piccolo, residues 1058 to 1114; numbered along this chain, Q9Y6V0 (parent)
chain: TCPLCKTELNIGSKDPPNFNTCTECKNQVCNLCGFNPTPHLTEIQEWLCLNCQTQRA

- Variants of: B1
- protocol-notes: abundance fitness (aPCA) (normalised: wild type 0, dead -1); higher = more abundant; growth selection in yeast, the domain comes from the species named
- condition-info: Homo sapiens
Give only the figure.

(Q) Name the recorded abundance fitness for C25R .
(A) -0.79

(Q) Name the recorded abundance fitness for L4V .
(A) -0.308

(Q) Name the recorded abundance fitness for E24N .
(A) -0.184

(Q) Name the recorded abundance fitness for W47Q .
(A) -0.09

(Q) Name the recorded abundance fitness for T7S .
(A) -0.09

(Q) Name the recorded abundance fitness for T21F .
(A) -0.109

(Q) Name the recorded abundance fitness for N31W .
(A) -0.19

(Q) Name the recorded abundance fitness for N27D .
(A) -0.094

(Q) Name the recorded abundance fitness for C30Y .
(A) -1.03

(Q) Name the recorded abundance fitness for N36H .
(A) 0.313

(Q) Name the recorded abundance fitness for P3F .
(A) -0.216

(Q) Name the recorded abundance fitness for L50K .
(A) 0.078

(Q) Name the recorded abundance fitness for E46Y .
(A) -0.349

(Q) Name the recorded abundance fitness for S13N .
(A) -0.146

(Q) Name the recorded abundance fitness for P16I .
(A) -0.173

(Q) Name the recorded abundance fitness for E24D .
(A) 0.008

(Q) Name the recorded abundance fitness for T21W .
(A) 0.106

(Q) Name the recorded abundance fitness for C33H .
(A) 0.076

(Q) Name the recorded abundance fitness for P37Q .
(A) 0.097

(Q) Name the recorded abundance fitness for T21P .
(A) -0.169

(Q) Name the recorded abundance fitness for E43K .
(A) -0.003

(Q) Name the recorded abundance fitness for F35K .
(A) 0.255

(Q) Name the recorded abundance fitness for T1R .
(A) -0.21

(Q) Name the recorded abundance fitness for E46V .
(A) -0.033

(Q) Name the recorded abundance fitness for L32Y .
(A) -0.218

(Q) Name the recorded abundance fitness for L41D .
(A) 0.004

(Q) Name the recorded abundance fitness for E43L .
(A) -0.398

(Q) Name the recorded abundance fitness for C5L .
(A) -1.17

(Q) Name the recorded abundance fitness for C2I .
(A) -1.23

(Q) Name the recorded abundance fitness for C30N .
(A) -0.612

(Q) Name the recorded abundance fitness for E24S .
(A) -0.13

(Q) Name the recorded abundance fitness for T1V .
(A) -0.202

(Q) Name the recorded abundance fitness for W47P .
(A) -0.039

(Q) Name the recorded abundance fitness for L32W .
(A) 0.015

(Q) Name the recorded abundance fitness for C30L .
(A) -0.971

(Q) Name the recorded abundance fitness for C2W .
(A) -0.904

(Q) Name the recorded abundance fitness for L9K .
(A) 0.026

(Q) Name the recorded abundance fitness for S13C .
(A) -0.384

(Q) Name the recorded abundance fitness for G12W .
(A) -0.326

(Q) Name the recorded abundance fitness for E43A .
(A) -0.048

(Q) Name the recorded abundance fitness for T7R .
(A) -0.056

(Q) Name the recorded abundance fitness for L48M .
(A) -0.312

(Q) Name the recorded abundance fitness for P16K .
(A) -0.248

(Q) Name the recorded abundance fitness for P17K .
(A) 0.127

(Q) Name the recorded abundance fitness for C49Q .
(A) -0.927

(Q) Name the recorded abundance fitness for P39W .
(A) -0.303

(Q) Name the recorded abundance fitness for Q45P .
(A) -0.141

(Q) Name the recorded abundance fitness for T42I .
(A) -0.105

(Q) Name the recorded abundance fitness for D15V .
(A) 0.001

(Q) Name the recorded abundance fitness for S13H .
(A) -0.079

(Q) Name the recorded abundance fitness for C30H .
(A) -0.17

(Q) Name the recorded abundance fitness for C22F .
(A) -0.958

(Q) Name the recorded abundance fitness for L32H .
(A) 0.073

(Q) Name the recorded abundance fitness for K14E .
(A) -0.226

(Q) Name the recorded abundance fitness for C2S .
(A) -0.687

(Q) Name the recorded abundance fitness for L4G .
(A) 0.067

(Q) Name the recorded abundance fitness for C22H .
(A) -0.567

(Q) Name the recorded abundance fitness for T23V .
(A) 0.067

(Q) Name the recorded abundance fitness for Q45Y .
(A) 0.047

(Q) Name the recorded abundance fitness for T23K .
(A) -0.031

(Q) Name the recorded abundance fitness for N27A .
(A) 0.151

(Q) Name the recorded abundance fitness for T54E .
(A) 0.231

(Q) Name the recorded abundance fitness for T38I .
(A) -0.143

(Q) Name the recorded abundance fitness for C52T .
(A) -0.842

(Q) Name the recorded abundance fitness for F19T .
(A) -0.044

(Q) Name the recorded abundance fitness for G34S .
(A) -0.106

(Q) Name the recorded abundance fitness for C5F .
(A) -1.11

(Q) Name the recorded abundance fitness for N31R .
(A) 0.012

(Q) Name the recorded abundance fitness for H40V .
(A) 0.051

(Q) Name the recorded abundance fitness for C52G .
(A) -0.727

(Q) Name the recorded abundance fitness for T21Y .
(A) 0.135

(Q) Name the recorded abundance fitness for T23M .
(A) 0.062

(Q) Name the recorded abundance fitness for T23P .
(A) -0.126

(Q) Name the recorded abundance fitness for N31V .
(A) 0.045

(Q) Name the recorded abundance fitness for I44R .
(A) -0.138

(Q) Name the recorded abundance fitness for T54G .
(A) 0.046

(Q) Name the recorded abundance fitness for E46A .
(A) -0.176

(Q) Name the recorded abundance fitness for C25K .
(A) -0.808

(Q) Name the recorded abundance fitness for T21A .
(A) 0.004

(Q) Name the recorded abundance fitness for C25A .
(A) -0.784

(Q) Name the recorded abundance fitness for L41N .
(A) 0.128

(Q) Name the recorded abundance fitness for N31T .
(A) -0.173

src = the Human Domainome abundance scans (Beltran et al. 2025)
